B1: H2-Kb / H5 (parent)
chain 1: GEQVEQRPPHLSVREGDSAVIICTYTDPNSYYFFWYKQEPGAGLQLLMKVFSSTEINEGQGFTVLLNKKDKQLSLNLTAAHPGDSAVYFCAVSNYGSSGNKLIFGIGTLLSVKP
chain 2: EAAVTQSPRNKVAVTGGKVTLSCNQTNNHNNMYWYRQDTGHGLRLIHYSYGAGSTEKGDIPDGYKASRPSQENFSLILELATPSQTSVYFCASGDRERDTQYFGPGTRLLVL
chain 3: not shown
chain 4: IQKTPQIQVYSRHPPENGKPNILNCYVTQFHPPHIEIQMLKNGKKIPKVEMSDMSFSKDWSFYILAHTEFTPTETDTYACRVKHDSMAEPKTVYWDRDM
chain 5: SIINFEKL

variants of: B1; assay: % of reporter cells activated (NFAT-GFP), raw; conditions: with H5; scale: % of reporter cells activated; note: test concentration or dose not given here
Quantity name: ratio to parent

Please review the entries below; each comes with its answer.
[[record]]
sequence_variant = "chain 5 I2L"
quantity_name = "ratio to parent"
readout_value = 0.607

[[record]]
sequence_variant = "chain 5 N4I"
quantity_name = "ratio to parent"
readout_value = 0.347

[[record]]
sequence_variant = "chain 5 N4T"
quantity_name = "ratio to parent"
readout_value = 0.352

[[record]]
sequence_variant = "chain 5 L8M"
quantity_name = "ratio to parent"
readout_value = 0.689

[[record]]
sequence_variant = "chain 5 I2G"
quantity_name = "ratio to parent"
readout_value = 0.505

[[record]]
sequence_variant = "chain 5 I3L"
quantity_name = "ratio to parent"
readout_value = 0.74


a. chain 5 N4C
b. chain 5 E6P
c. chain 5 F5C
d. chain 5 F5I
e. chain 5 N4H
Endpoint returns the given variants ordered by ascending ratio to parent. Form field (ranking): labels in requested order.
b, a, c, d, e
(b: 0.301, a: 0.49, c: 0.816, d: 2.01, e: 8.69)

P. chain 5 I3M
Q. chain 5 K7P
I'd appreciate it if you could identify which of P and Q has the greater ratio to parent. Mark your selection by writing its label.
Q
(Q: 0.551, P: 0.327)

I. chain 5 N4P
II. chain 5 L8S
III. chain 5 K7V
IV. chain 5 K7E
V. chain 5 N4F
# sort list by recorded ratio to parent, greatest to least Present the labels in the sequence the task asks for.
IV, V, III, II, I

1. chain 5 I3E
2. chain 5 K7A
3. chain 5 I2R
4. chain 5 I3V
// smallest ratio to parent at index 0, largest at the end Form entry: labels listed in requested order.
3, 1, 2, 4

I. chain 5 L8N
II. chain 5 I2Q
III. chain 5 I2F
IV. chain 5 I2V
Please produce an ascending ranking of these variants based on ratio to parent. Quick reminder: the answer is the labels in the order asked.
I, II, III, IV
(I: 0.281, II: 0.454, III: 0.653, IV: 1.03)

1. chain 5 S1L
2. chain 5 S1G
Sorting ascending by ratio to parent, which comes first: 1 or 2 ? Record your answer as the label of the chosen record.
2

I. chain 5 I2H
II. chain 5 L8E
Given I and given II , which shows the smaller recorded ratio to parent? Answer = label.
I
(I: 0.332, II: 0.49)

I. chain 5 F5R
II. chain 5 N4W
Select one. Lower ratio to parent: I or II Field: selected label. Fill in the label of the entry you choose.
I
